- experiment notes: chemical genetic growth profiling, strain panel (AID 1159580);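 also: tested at 20 µM; growth read once vehicle control cultures reached saturation at 30 °C; 1 = growth at the plate median or of vehicle wells; lower values mean less growth of the strain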
- cond: S. cerevisiae deletion strains, growth OD, locus YDR297W, strain sur2, active compounds read low
The campaign covered roughly 5,500 compounds. About 2,000 (36%) were called active. Inconclusive results (about 18%) are left out. This is one part of the list.
Items are presented alongside their recorded normalized growth.
measured quantity: normalized growth

>  <compound>
NC(N)=Nc1nc(CSCCC(N)=NS(N)(=O)=O)cs1

>  <measured quantity>
normalized growth

>  <measured value>
0.997

$$$$
>  <compound>
Cc1cccc(Nc2cc(Cl)nc(SCC(=O)O)n2)c1C

>  <measured quantity>
normalized growth

>  <measured value>
0.991

$$$$
>  <compound>
O=C(/C=C/C=C/c1ccc2c(c1)OCO2)N1CCCCC1

>  <measured quantity>
normalized growth

>  <measured value>
0.965

$$$$
>  <compound>
COc1cccc2c1CCC1CC(=O)CCC21C (stereo unspecified)

>  <measured quantity>
normalized growth

>  <measured value>
1

$$$$
>  <compound>
C/C=C(/C(=C/C)c1ccc(O)cc1)c1ccc(O)cc1

>  <measured quantity>
normalized growth

>  <measured value>
0.952

$$$$
>  <compound>
CC(C)=CCc1c(O)cc2oc(C)cc(=O)c2c1O

>  <measured quantity>
normalized growth

>  <measured value>
0.973

$$$$
>  <compound>
Cc1ccc2c(c1)CC[C@H]1CC(=O)CC[C@]21C

>  <measured quantity>
normalized growth

>  <measured value>
0.991

$$$$
>  <compound>
CC1(C)C2CC[C@]3(C)C(C(=O)C=C4[C@@H]5C[C@@](C)(C(=O)O)CC[C@]5(C)CC[C@]43C)[C@@]2(C)CC[C@@H]1OC(=O)CCC(=O)O (stereo partly specified)

>  <measured quantity>
normalized growth

>  <measured value>
0.995

$$$$
>  <compound>
CCC(C(=O)O)c1ccccc1 (stereo unspecified)

>  <measured quantity>
normalized growth

>  <measured value>
0.983

$$$$
>  <compound>
NC/C=C/C(=O)O

>  <measured quantity>
normalized growth

>  <measured value>
1.01

$$$$
>  <compound>
CC(C)CC1C(=O)N2CCC[C@H]2C2(O)O[C@](NC(=O)C3C=C4c5cccc6[nH]c(Br)c(c56)C[C@H]4N(C)C3)(C(C)C)C(=O)N12 (stereo partly specified)

>  <measured quantity>
normalized growth

>  <measured value>
0.976

$$$$

###

- experiment notes: chemical genetic growth profiling, strain panel (AID 1159580);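 also: tested at 20 µM; growth read once vehicle control cultures reached saturation at 30 °C; 1 = growth at the plate median or of vehicle wells; lower values mean less growth of the strain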
- cond: S. cerevisiae deletion strains, growth OD, locus YLR418C, strain cdc73
The campaign covered roughly 5,500 compounds. About 2,000 (36%) were called active. Another 18% or so got no clear call; they are omitted. No stated cut-off is given here; in the data, active means normalized growth mostly below about 0.91 (no sharp cut-off); inconclusive means no clear call, values can overlap the other calls; inactive means mostly above about 0.92. The list shows a part of the results.
Outcome codes: 1 for active, -1 for inactive

>  <compound>
CCC1(c2ccc(N)cc2)CCC(=O)NC1=O (configuration not stated)

>  <assigned class>
-1

$$$$
>  <compound>
CCCCOc1ccc(OCCCN2CCOCC2)cc1

>  <assigned class>
1

$$$$
>  <compound>
CCC1(C)CC(=O)NC1=O (configuration not stated)

>  <assigned class>
-1

$$$$
>  <compound>
O=C(/C=C/C=C/c1ccc2c(c1)OCO2)N1CCCCC1

>  <assigned class>
1

$$$$
>  <compound>
COc1ccc2cc1Oc1ccc(cc1)C[C@H]1c3cc(c(OC)cc3CCN1C)Oc1c(OC)c(OC)cc3c1[C@H](C2)N(C)CC3

>  <assigned class>
-1

$$$$
>  <compound>
CNC1(C)C2CCC(C2)C1(C)C (configuration not stated)

>  <assigned class>
-1

$$$$
>  <compound>
c1ccc(CN(CC2=NCCN2)c2ccccc2)cc1

>  <assigned class>
-1

$$$$

###

- experiment notes: chemical genetic growth profiling, strain panel (AID 1159580);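 also: tested at 20 µM; growth read once vehicle control cultures reached saturation at 30 °C; 1 = growth at the plate median or of vehicle wells; lower values mean less growth of the strain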
- cond: S. cerevisiae deletion strains, growth OD, locus YDR502C, strain sam2, active compounds read low
The whole screen tested about 5,500 compounds, of which about 2,000 (36%) were called active. Roughly 18% stayed inconclusive and do not appear here. Some of the results follow.
Measured normalized growth values are reported for all entries that follow.

>  <compound>
CCCCCC(=O)O[C@]1(C(C)=O)CCC2C3CCC4=CC(=O)CC[C@]4(C)C3CC[C@@]21C (stereo not given in full)

>  <normalized growth>
1.01

$$$$
>  <compound>
C[C@@H]1O[C@@H](O[C@H]2[C@@H](Oc3cc(O)c4c(c3)O[C@H](c3ccc(O)cc3)CC4=O)O[C@H](CO)[C@@H](O)[C@@H]2O)[C@H](O)[C@H](O)[C@H]1O

>  <normalized growth>
1

$$$$
>  <compound>
O=C1C[C@@H](c2ccc(O)cc2)Oc2cc(O)cc(O)c21

>  <normalized growth>
1.01

$$$$
>  <compound>
COc1cc(OC)c2c(c1)OC(c1ccccc1)CC2=O (stereo not given)

>  <normalized growth>
1

$$$$
>  <compound>
CC(=O)O[C@]1(C(C)=O)CCC2C3C[C@H](C)C4=CC(=O)CC[C@]4(C)C3CC[C@@]21C (stereo not given in full)

>  <normalized growth>
0.954

$$$$
>  <compound>
COc1ccc([C@@H]2CC(=O)c3c(O)cc(O)cc3O2)cc1O

>  <normalized growth>
0.995

$$$$
>  <compound>
S=C=NCc1ccccc1

>  <normalized growth>
0.0605

$$$$
>  <compound>
O=C1C[C@@H](c2ccccc2)Oc2cc(O)cc(O)c21

>  <normalized growth>
0.892

$$$$
>  <compound>
CNC1(C)C2CCC(C2)C1(C)C (stereo not given)

>  <normalized growth>
0.984

$$$$
>  <compound>
O=C1CC(c2ccccc2)Oc2ccccc21 (stereo not given)

>  <normalized growth>
0.96

$$$$

###

- experiment notes: chemical genetic growth profiling, strain panel (AID 1159580);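 also: tested at 20 µM; growth read once vehicle control cultures reached saturation at 30 °C; 1 = growth at the plate median or of vehicle wells; lower values mean less growth of the strain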
- cond: S. cerevisiae deletion strains, growth OD, locus YGR229C, strain SMI1
Out of some 5,500 compounds screened, about 2,000 (36%) were called active. Inconclusive results (about 18%) are left out. Cut-off read from the data, not from the text of the source: active = normalized growth mostly below about 0.91 (no sharp cut-off); inconclusive = no clear call, values can overlap the other calls; inactive = mostly above about 0.92. The list shows a part of the results.
Labels: Yes (active), No (inactive)

>  <compound>
C=CCc1ccc2c(c1)OCO2

>  <assigned class>
No

$$$$
>  <compound>
O=C(O)c1cc(=O)c2cc(Cl)ccc2[nH]1

>  <assigned class>
No

$$$$
>  <compound>
COc1ccccc1CC(=O)NC1CCN(Cc2ccccc2)CC1

>  <assigned class>
No

$$$$
>  <compound>
N#Cc1c(Cl)c(Cl)c(Cl)c(C#N)c1Cl

>  <assigned class>
No

$$$$
>  <compound>
O=C1CC(c2ccccc2)Oc2ccccc21 (stereo not drawn)

>  <assigned class>
No

$$$$
>  <compound>
Oc1c(Cl)c(Cl)c(Cl)c(Cl)c1Cl

>  <assigned class>
Yes

$$$$
>  <compound>
OCC(O)Cc1ccc2c(c1)OCO2 (stereo not drawn)

>  <assigned class>
No

$$$$
>  <compound>
O=C(O)COc1cc(Cl)c(Cl)cc1Cl

>  <assigned class>
No

$$$$
>  <compound>
O=C(Nc1ccccc1C(=O)Nc1ccc(Br)cc1)c1ccccc1

>  <assigned class>
No

$$$$
>  <compound>
O=C(O)C1CC([C@@H]2CCCCN2)CN2CCCCC12 (stereo partly drawn)

>  <assigned class>
No

$$$$
>  <compound>
C=CC1=C(C(=O)O)N2C(=O)[C@@H](NC(=O)/C(=N/O)c3csc(N)n3)[C@H]2SC1

>  <assigned class>
No

$$$$
>  <compound>
CC1(C)C2CC[C@]3(C)C(C(=O)C=C4[C@H]5C[C@@](C)(C(=O)O)CC[C@]5(C)CC[C@]43C)[C@@]2(C)CC[C@@H]1O (stereo partly drawn)

>  <assigned class>
No

$$$$
>  <compound>
CC(=O)O[C@H]1C(=O)[C@@]2(C)C([C@H](OC(=O)c3ccccc3)[C@]3(O)C[C@H](OC(=O)[C@H](O)[C@@H](NC(=O)c4ccccc4)c4ccccc4)C(C)=C1C3(C)C)[C@]1(OC(C)=O)CO[C@@H]1C[C@@H]2O (stereo partly drawn)

>  <assigned class>
No

$$$$
>  <compound>
O=C1CC(c2ccc(O)cc2)Oc2ccccc21 (stereo not drawn)

>  <assigned class>
Yes

$$$$
>  <compound>
COc1ccc(-c2coc3c(OC)c(OC)cc(O)c3c2=O)cc1

>  <assigned class>
No

$$$$
>  <compound>
NC(=O)N1c2ccccc2CC(=O)c2ccccc21

>  <assigned class>
No

$$$$
>  <compound>
C[C@H](NC(=O)/C(C#N)=C/c1ccc(O)c(O)c1)c1ccccc1

>  <assigned class>
No

$$$$
>  <compound>
N[C@@H](CS(=O)O)C(=O)O

>  <assigned class>
No

$$$$
>  <compound>
OC[C@H]1NC[C@@H](O)[C@@H]1O

>  <assigned class>
No

$$$$
>  <compound>
OCCN(CCO)c1nc(N2CCCCC2)c2nc(N(CCO)CCO)nc(N3CCCCC3)c2n1

>  <assigned class>
No

$$$$
>  <compound>
NC(=O)c1ncn([C@@H]2O[C@H](CO)[C@@H](O)[C@H]2O)c1O

>  <assigned class>
No

$$$$
>  <compound>
O=c1[nH]c2cccnc2[nH]c1=O

>  <assigned class>
No

$$$$
>  <compound>
Cc1c(N(C)C)c(=O)n(-c2ccccc2)n1C

>  <assigned class>
No

$$$$
>  <compound>
O[Si](CCCN1CCCCC1)(c1ccc(F)cc1)C1CCCCC1 (stereo not drawn)

>  <assigned class>
No

$$$$
>  <compound>
CCc1ccc(CCOc2ccc(CC3SC(=O)NC3=O)cc2)nc1 (stereo not drawn)

>  <assigned class>
No

$$$$
>  <compound>
FC(F)(F)c1ccnc(-n2ccc(-c3cccs3)n2)n1

>  <assigned class>
No

$$$$
>  <compound>
COc1cccc2c1CCC1CC(=O)CCC21C (stereo not drawn)

>  <assigned class>
No

$$$$
>  <compound>
CCCCCCCc1c(O)c2ccccc2[nH]c1=O

>  <assigned class>
No

$$$$
>  <compound>
CC(C(=O)O)c1ccc2c(c1)[nH]c1ccc(Cl)cc12 (stereo not drawn)

>  <assigned class>
No

$$$$
>  <compound>
NC[C@@H]1O[C@H](O[C@@H]2[C@@H](CO)OC(O[C@@H]3[C@@H](O)[C@H](N)C[C@H](N)[C@H]3OC3O[C@H](CN)[C@@H](O)[C@H](O)[C@H]3N)[C@@H]2O)[C@H](N)[C@@H](O)[C@@H]1O (stereo partly drawn)

>  <assigned class>
No

$$$$
>  <compound>
COc1ccc(C2CC(=O)c3ccc(OC)cc3O2)cc1 (stereo not drawn)

>  <assigned class>
Yes

$$$$
>  <compound>
Cc1ccc2c(c1)CC[C@H]1CC(=O)CC[C@]21C

>  <assigned class>
No

$$$$
>  <compound>
O=C1C[C@@H](c2ccc(O)cc2)Oc2cc(O)cc(O)c21

>  <assigned class>
No

$$$$

Provenance of the data: PubChem BioAssay AID1159580
